Each recorded value in this set is attributed to patent US20240360103A1.

Target or system C3 convertase (CVF:Bb) (Homo sapiens): recorded pIC50 listed per item.
The meaning of pIC50 here: minus log10 of the concentration in molar units.

• CCCCN1CCN(Cc2c(OC)cc(C)c3[nH]ccc23)C(c2ccc(C(=O)O)cc2)C1 (stereo not drawn) = 6.01

For the record "COc1cc(C)c2[nH]ccc2c1CN1CCN(CCO)C[C@H]1c1ccc(C(=O)O)cc1" , what value of pIC50 is listed for C3 convertase (CVF:Bb) (Homo sapiens)?
6.46

Recall the recorded pIC50 for "COc1cc(C)c2[nH]ccc2c1CN1CCN(CC(C)(F)F)C[C@H]1c1ccc(C(=O)O)cc1" with C3 convertase (CVF:Bb) (Homo sapiens) and state it.
Sequence (P00751 260-764 limits assumed): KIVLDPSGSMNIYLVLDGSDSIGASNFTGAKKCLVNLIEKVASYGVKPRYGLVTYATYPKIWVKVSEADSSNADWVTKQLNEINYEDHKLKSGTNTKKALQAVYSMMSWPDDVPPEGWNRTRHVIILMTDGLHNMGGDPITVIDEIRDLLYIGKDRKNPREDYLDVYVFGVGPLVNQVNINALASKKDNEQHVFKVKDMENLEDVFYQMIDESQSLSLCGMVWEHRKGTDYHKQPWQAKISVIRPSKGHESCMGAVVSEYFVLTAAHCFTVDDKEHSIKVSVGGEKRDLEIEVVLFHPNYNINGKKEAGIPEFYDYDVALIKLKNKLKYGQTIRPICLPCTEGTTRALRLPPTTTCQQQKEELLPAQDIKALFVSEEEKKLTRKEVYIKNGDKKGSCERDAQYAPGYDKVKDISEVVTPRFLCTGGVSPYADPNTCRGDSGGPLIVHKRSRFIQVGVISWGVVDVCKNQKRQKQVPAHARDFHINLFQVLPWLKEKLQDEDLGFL
6.57

# get_value(readout= pIC50, system= C3 convertase (CVF:Bb) (Homo sapiens)) for Cc1ccc(CN2CCN(C)CC2c2ccc(C(=O)O)cc2)c2cc[nH]c12 (stereo not drawn)
6.32

Please tell me: pIC50 of "Cc1cc(C2CC2)c(CN2CCN(CC(F)F)C[C@@H]2c2ccc(C(=O)O)cc2)c2cc[nH]c12" , system C3 convertase (CVF:Bb) (Homo sapiens)?
6.79

====

# target: C3 convertase (CVF:Bb) (Homo sapiens)
Catalogue of pIC50 values
On this scale, pIC50 is minus log10 of a concentration expressed in M (mol/L).

• COc1cc(C)c2[nH]ccc2c1CN1CCN(CCC(F)F)C[C@H]1c1ccc(C(=O)O)cc1 = 7.57
• COc1cc(C)c2[nH]ccc2c1CN1CCN(CCCF)CC1c1ccc(C(=O)O)cc1 (stereo not drawn) = 6.92
• COc1cc(C)c2[nH]ccc2c1CN1CCN(C2CC2)C[C@H]1c1ccc(C(=O)O)cc1 (single isomer, unassigned) = 7.02
• COc1cc(C)c2[nH]ccc2c1CN1CCN(CCC(C)C)CC1c1ccc(C(=O)O)cc1 (stereo not drawn) = 5.50
• COc1cc(Cl)c2[nH]ccc2c1CN1CCN(CC(F)(F)F)CC1c1ccc(C(=O)O)cc1 (stereo not drawn) = 5.57

Kindly state the measured pIC50 obtained for COc1cc(C)c2[nH]ccc2c1CN1CCN(S(C)(=O)=O)CC1c1ccc(C(=O)O)cc1 (stereo not drawn) with C3 convertase (CVF:Bb) (Homo sapiens).
5.03

Look up pIC50 with C3 convertase (CVF:Bb) (Homo sapiens) for this molecule: C#CCN1CCN(Cc2c(OC)cc(C)c3[nH]ccc23)C(c2ccc(C(=O)O)cc2)C1 (stereo not drawn)
5.97

Can you look up pIC50 on C3 convertase (CVF:Bb) (Homo sapiens) for "COc1cc(C)c2[nH]ccc2c1CN1CCN(CC(F)F)C[C@H]1c1ccc(C(=O)O)cc1" ?
7.55

====

For C3 convertase (CVF:Bb) (Homo sapiens), measured IC50 is reported for the entries below.
Report only the number, with the unit nM understood.

For orientation, consider the following solved cases.
* COc1cc(C)c2[nH]ccc2c1CN1CCN(CCC(F)(F)F)C[C@H]1c1ccc(C(=O)O)nc1 | 96
* COc1cc(C)c2[nH]ccc2c1CN1CCN(CC(F)F)C[C@@H]1c1ccc(C(=O)O)cc1 | 80

// lookup IC50 for "COc1cc(C)c2[nH]ccc2c1CN1CCN(CC(F)F)C[C@H]1c1ccc(C(=O)NS(=O)(=O)C2CC2)cc1"
520

// IC50 lookup, key: COc1cc(C)c2[nH]ccc2c1CN1CCN(CCO)CC1c1ccc(C(=O)O)cc1 (stereo not shown)
119
